Taken from patent US20060094649A1.

// values below are reported pIC50
EXPERIMENTAL_SYSTEM: HLA-A*0301 (human)
METHOD_DESCRIPTION: competitive inhibition of 125I-A3con binding to purified HLA
RUN_PARAMETERS: remark: other sources report otherwise
pIC50 field: float, defined as -log10 of concentration (mol/L).

* GTRVRAMAIYK [p53.154 …] | 8.00

Q: # lookup: pIC50 of RVCACPGR [p53.273 RVCACPGR]
Ans: 7.51
